Assay: qHTS Assay for inhibitors of the human cytomegalovirus (HCMV); also: % is scaled to controls: 0 for no effect and ±100 for the full control effect
Conditions: HFF cells, HCMV-luciferase reporter, 72 h; at 57.5 µM; hits give low values
Hit rate of the full screen: of about 410,000 compounds, about 18,000 (4.4%) were called active. About 7% were inconclusive and are not listed. The full list was thinned out, with actives kept by preference.
Parameter: activity change, negative = inhibition (%)
API: value field is a number in %; no unit string.

Entry O=C(NCc1ccccc1Cl)c1cccn1-c1nnc(N2CCCCC2)s1 has what activity change, negative = inhibition?
0

Reported activity change, negative = inhibition, molecule COC(=O)c1ccc(NC(=O)CN(c2ccc(C)cc2)S(=O)(=O)c2c(C)n[nH]c2C)cc1 : ____
30

Would you mind telling me what activity change, negative = inhibition value was observed for Cc1ccc(NC(=O)CN2c3ccccc3S(=O)(=O)c3ccccc32)cc1F ?
18.3

Item under review: Cn1cc(C(=O)c2ccc(Cl)cc2Cl)cc1C(=O)NN . Reported activity change, negative = inhibition?
-23.5

Which activity change, negative = inhibition reading was recorded for the molecule COc1ccc(OCC(O)CNC(=O)Nc2ccc(Cl)cc2)cc1 (configuration not stated) ?
-6.88

Using the record for CC[n+]1cc(C)ccc1/C=C/c1ccc(N(C)C)cc1 , report its activity change, negative = inhibition.
-99.4

Sample Cc1ccc(Cl)cc1N(C)C(=O)C1CCCN(c2ncnc3onc(-c4ccc(F)cc4)c23)C1 (configuration not stated) — what was its activity change, negative = inhibition?
-73.3

activity change, negative = inhibition lookup needed for CC(C)NS(=O)(=O)c1ccc(OCC(=O)Nc2ccc3c(c2)OCCO3)cc1 , thanks.
-82.2

Look at this molecule and give its reported activity change, negative = inhibition. CC[C@H](C)[C@H]1CNC(=O)C(=O)N1CC1CCN(CCc2ccc(OC)c(OC)c2)CC1
15.6

Look at this molecule and give its reported activity change, negative = inhibition. CC(C)NS(=O)(=O)c1ccc(OCC(=O)NC2CCCCCC2)cc1
-39.9

GET /values?readout=activity change, negative = inhibition&item= CC(C)S(=O)(=O)c1csc(NC(=O)Nc2ccc(Cl)cc2)c1Cl
-93.2

Form field: reported activity change, negative = inhibition of CC(NC(=O)CN(C)S(=O)(=O)c1ccc(F)cc1)C1CC2CCC1C2 (configuration not stated)
5.39

# activity change, negative = inhibition lookup, item O=C(O)c1ccc(CSc2nc3cccnc3n2Cc2cccc(F)c2)cc1
40.5

// activity change, negative = inhibition lookup, key: O=C1Nc2cc(Cl)c(Cl)cc2N(O)N1c1ccccc1Cl
-10

Data request, read-out activity change, negative = inhibition, for CC(=O)N1CCC(N(C(=O)Nc2ccc(Cl)cc2)C(C)C)CC1
-34.8

Which activity change, negative = inhibition is reported for this molecule? COc1cc(OC)cc(C(=O)N[C@H](C(=O)OCC(=O)NC(C)c2ccccc2)C(C)C)c1 (some centres not stated)
-6.95

Would you kindly share the measured activity change, negative = inhibition for Cc1cccc(C)c1-n1nnnc1C1C(=O)NC(=S)N1c1ccccc1 (configuration not stated) ?
26.7

Item under review: Cc1cccc(C(=O)OCC(=O)NC(C)C2CC3CCC2C3)c1O (configuration not stated) . Reported activity change, negative = inhibition?
50.9

Sample CCOC(=O)CCC(=O)OCC(=O)NC(C)C1CC2CCC1C2 (configuration not stated) — what was its activity change, negative = inhibition?
-99.5

GET /values?readout=activity change, negative = inhibition&item= COc1cc(OC)cc(C(=O)N[C@H](C(=O)Nc2nc3ccccc3[nH]2)C(C)C)c1
-77

Fill in: activity change, negative = inhibition of Cn1nnnc1SCCCNCc1cccc(OCc2ccc(Cl)cc2)c1 is ___
12.4

Param item = O=C1C=C[C@]23OCCC[C@@]2(CCCO)CCCC3=C1 ; retrieve measured activity change, negative = inhibition.
-2.29

* * *

Assay: qHTS Assay for inhibitors of the human cytomegalovirus (HCMV); also: % is scaled to controls: 0 for no effect and ±100 for the full control effect
Conditions: HFF cells, HCMV-luciferase reporter, 72 h; at 57.5 µM
In all, about 410,000 compounds went through this assay and about 18,000 (4.4%) were called active. Another 7% or so got no clear call; they are omitted. Cut-off read from the data, not from the text of the source: active = activity change below about -60%; inconclusive = no clear call, values can overlap the other calls; inactive = above about -39%. The full list was thinned out, with actives kept by preference.
Hi! Could you answer with just one of these? active, inactive

GET /call?item= O=C(COc1ccccc1)N1CCN=C1SCc1cccc(F)c1 returns the recorded outcome of this test.
inactive

Record lookup: outcome of this test for COc1ccc(C(=O)NC(=S)NNC(=O)CCc2ccccc2)cc1 ?
active

Lab log entry: CCOc1ccc(N(CC)C(=O)C2CCN(S(=O)(=O)c3cccc4nonc34)CC2)cc1 — outcome as called in the assay?
inactive

Identify the outcome logged in this assay for the compound shown: Cc1ccn(C(CC(=O)c2ccc(Br)cc2)C(=O)O)n1 (stereo not given)
inactive

Each compound tested received a call. Report the one for COc1ccc(/C=N/Nc2ccccc2C(=O)O)cc1 .
active

Test call, this compound: COc1ccc(Cl)cc1CSc1ncn[nH]1
active

Assay result, entry CC(CCCc1ccccc1)NC(=O)c1nn(-c2ccc(Cl)cc2)nc1CO (stereo not given) — outcome?
inactive

Dear colleague, could you share the recorded outcome for CCCS(=O)(=O)N1CCN=C1SCc1cccc(F)c1 when you have a moment?
active

Per the assay record, what outcome was assigned to CCN1CCC(N(Cc2ccc(F)cc2)C(=O)Nc2cc(C)ccc2C)CC1 ?
inactive

// return assay outcome for N#Cc1ccccc1Cn1cnc2nc3c(cc2c1=O)CCCC3
inactive

What classification did COc1ccc(NC(=O)c2sc3nc(-c4cc5cccc(OC)c5oc4=O)[nH]c(=O)c3c2C)cc1 end up with in this test?
inactive

Dear colleague, could you share the recorded outcome for Cc1noc(C)c1C(=O)NC(C)c1ccc2c(c1)OCO2 (stereo not given) when you have a moment?
inactive

I'd appreciate the recorded outcome for O=S(=O)(c1ccc(F)cc1)N1CCN=C1SCc1cccc(F)c1 from this test.
inactive

Please state the recorded outcome for this compound: CC(=O)Nc1cc(-c2ccc(N3CCN(C)CC3)cc2)cn2c(-c3cccc(C(=O)N(C)C)c3)cnc12
inactive

Which outcome did this test record for the compound COC(=O)CCNc1ccc2c(c1)OCCO2 ?
active

Please state the recorded outcome for this compound: COc1ccc(NC(=O)NC(C)c2c(-n3cccc3)sc(C)c2C)cc1OC (stereo not given)
active

Which outcome was assigned to CCc1ccc(NC(=O)Cn2c(=O)n(CCC(=O)NCc3ccc4c(c3)OCO4)c(=O)c3ccccc32)cc1 in this test?
inactive

Hey, what did the test say about Cn1cnc2c1c(=O)n(Cc1ccccc1C#N)c(=O)n2C ?
active

Call for entry O=C(Nc1ccc(C(=O)OCc2cc(=O)n3nc(C4CC4)sc3n2)cc1)c1ccc(F)cc1 :
inactive

Kindly provide the recorded test outcome for the following compound: ClC1(Cl)CC1CSc1ncn[nH]1 (stereo not given)
inactive

Recorded call for COc1ccc(OCc2ccc(-c3nc(C#N)c(N4CCN(c5ccccc5)CC4)o3)o2)cc1 ?
inactive

Please indicate how the test categorized COc1ccc(C(=O)Nc2ccccc2C(=O)N/N=C/c2ccc(O)c(OC)c2)cc1 .
active

Would you mind telling me which call this test gave Cc1ccc(NC(=O)Cc2ccc(NC(=O)N3CCCCc4ccccc43)cc2)cc1 ?
inactive

Hello, I am checking results. What call was entered for Cn1cnnc1SCC(=O)NNC(=O)COc1ccc(Br)cc1 ?
inactive

# fetch the recorded call for COc1cccc(N(C(=O)C2COc3ccccc3O2)C(C(=O)NC2CCCCC2)c2ccc(O)cc2)c1 (stereo not given) here
inactive

What call does the record list for CCOc1ccc(N(CC)C(=O)c2cc3c(=O)oc4ccccc4c3s2)cc1 ?
inactive

GET /call?item= CCC(C)(C)NC(=O)CN(C(=O)C(=O)Nc1ccc2c(c1)OCCO2)C(C)(C)CC returns the recorded outcome of this test.
inactive

I would be grateful if you could indicate the recorded call for COc1cc(C(=O)Nc2cc(C(F)(F)F)ccc2N2CCOCC2)ccc1O .
inactive

Just curious, what result did CC(C)(C)NC(=O)/C(=C/c1cccnc1)NC(=O)c1ccco1 get here?
active

// return assay outcome for CCOc1ccc(NCCC(=O)c2ccc3c(c2)OCO3)cc1
inactive

What did this assay record as the result for Cn1cnc2c1c(=O)n(Cc1c(Cl)cccc1Cl)c(=O)n2C ?
inactive

What did the test return for C/C(CC(=O)NC(C)(C)C)=N\NC(=O)c1ccco1 ?
inactive

Entry O=c1nc(N/N=C/c2ccco2)cn[nH]1 : call = ?
inactive

Please share the test call associated with O=C(C1CCC(Cn2c(=O)c3sccc3n(Cc3ccccc3F)c2=O)CC1)N1CCCCC1 (stereo not given) .
inactive

Would you mind telling me which call this test gave c1ccc2c(-c3nn4nnnc4c4ccccc34)cccc2c1 ?
inactive

// return assay outcome for CCCCOc1ccc(Cl)cc1CSc1nncn1N
inactive

GET /call?item= CC(=O)C[C@@H](O)CC(=O)[C@H]1OC(=O)CCCCCCc2ccccc21 returns the recorded outcome of this test.
inactive

So what was the verdict on COc1ccc(SSc2ccc(OC)cc2C(=O)O)c(C(=O)O)c1 in this test?
inactive

Dear all, I need the recorded test outcome for CSc1nc(-c2ccccc2)nc(C(Cl)Cl)n1 , thank you.
active

Test call, this compound: Cc1ccccc1C(=O)N(Cc1ccc(N(C)C)cc1)CC1CCCO1 (stereo not given)
inactive

Answer briefly: the call reported for COc1cccc(NC(=S)NC(=O)c2c(Cl)c(C)nn2C)c1 in this assay.
inactive

Test call, this compound: CC1CCC(NS(=O)(=O)c2ccc3c(c2)CC(=O)N3)CC1 (stereo not given)
inactive

Give the logged outcome of this assay for the following compound: O=C(NC(Cc1ccccc1)C(=O)O)/C(=C\c1ccccc1)NC(=O)c1ccco1 (stereo not given)
inactive

Just curious, what result did Cn1nccc1NS(=O)(=O)c1ccc(F)cc1 get here?
inactive

Which outcome was assigned to NC1=CC(=O)C(=O)c2cccnc21 in this test?
active

Data provenance is PubChem BioAssay AID1259415.
